- assay_system: T1, Chryseobacterium sp-62563 deamidase polypeptide (second polypeptide, deamidase domain), wildtype (Chryseobacterium sp-62563)
- T1 sequence: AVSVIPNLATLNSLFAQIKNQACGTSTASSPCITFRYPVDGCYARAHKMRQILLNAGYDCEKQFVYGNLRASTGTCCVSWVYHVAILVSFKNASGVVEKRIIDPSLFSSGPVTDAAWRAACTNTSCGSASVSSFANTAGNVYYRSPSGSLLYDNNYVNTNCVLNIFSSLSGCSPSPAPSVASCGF
- assay_protocol: cell-based or functional assay
The following binders are listed with their measured Leakage activity values.
Please append the unit to your numeric answer.

Worked examples follow.
binder	Leakage activity
Chryseobacterium sp-62563 propeptide K21G (protein) NQDPNLVAKESNETAMKDFGGTVPVGIEKEDGKFKISFMVTAQPYEIKDSKENAAYISMIKTAVENETPIHVFLKANTNEIAKVDKATDDDIRYFKSVFTKEVKEENRK	0%
Chryseobacterium sp-62563 propeptide F73D (protein) NQDPNLVAKESNETAMKDFGKTVPVGIEKEDGKFKISFMVTAQPYEIKDSKENAAYISMIKTAVENETPIHVDLKANTNEIAKVDKATDDDIRYFKSVFTKEVKEENRK	2%
Chryseobacterium sp-62563 propeptide Y94Q (protein) NQDPNLVAKESNETAMKDFGKTVPVGIEKEDGKFKISFMVTAQPYEIKDSKENAAYISMIKTAVENETPIHVFLKANTNEIAKVDKATDDDIRQFKSVFTKEVKEENRK	0%
Chryseobacterium sp-62563 propeptide T41E (protein) NQDPNLVAKESNETAMKDFGKTVPVGIEKEDGKFKISFMVEAQPYEIKDSKENAAYISMIKTAVENETPIHVFLKANTNEIAKVDKATDDDIRYFKSVFTKEVKEENRK	0%

Next:
Which Leakage activity is listed for Chryseobacterium sp-62563 propeptide Y45K (protein) NQDPNLVAKESNETAMKDFGKTVPVGIEKEDGKFKISFMVTAQPKEIKDSKENAAYISMIKTAVENETPIHVFLKANTNEIAKVDKATDDDIRYFKSVFTKEVKEENRK ? 0%
